measure.name: melting point

Solved cases below.
molecule | melting point
Cc1ccc(-c2ccc3nnn(Cc4ccc5ncccc5c4)c3n2)s1 | 154 to 156 °C
CCN(CC)Cc1ccc(N=C2NCCN2)c(Cl)c1 | 113 to 115 °C
COCC1CN(c2ccc3c(c2)CCC(CCC(F)(F)F)O3)C(=O)O1 (stereo not given) | 110 to 111 °C
O=C(O)CCCC/C=C(\c1ccc(-c2nc(C(=O)NCCCCCOc3ccccc3)co2)cc1)c1cccnc1 | 42 to 48 °C

# input for lookup
Query block: Identify measured melting point associated with CCOc1ccc(F)cc1C(C)(C)CC(O)(Cn1ccc(=O)c2ccccc21)C(F)(F)F (stereo not given)
Result block: 195 to 196 °C
